Ref: paper PMC8694313

Target or system Aspergillus niger: recorded MIC listed per item.
Reply numerically in µg/mL, unit not repeated.

Look over these answered cases.
compound	assayed.target	MIC / µg/mL
COC(=O)NC[C@@H](O)[C@@H]1CCc2cc(F)ccc2O1 [Compound 9a]	Aspergillus niger	11.2
CC(C)COC(=O)NC[C@@H](O)[C@@H]1CCc2cc(F)ccc2O1 [Compound 9c]	Aspergillus niger	19.3
O=S(=O)(NC[C@@H](O)[C@@H]1CCc2cc(F)ccc2O1)c1cccc(C(F)(F)F)c1 [Compound 8e]	Aspergillus niger	11.7
O=S(=O)(NC[C@@H](O)[C@@H]1CCc2cc(F)ccc2O1)c1ccc(F)cc1 [Compound 8a]	Aspergillus niger	22.3
O=S(=O)(NC[C@@H](O)[C@@H]1CCc2cc(F)ccc2O1)c1ccc(Br)cc1 [Compound 8b]	Aspergillus niger	20.4
O=S(=O)(NC[C@@H](O)[C@@H]1CCc2cc(F)ccc2O1)c1cccs1 [Compound 8c]	Aspergillus niger	18.1
O=C(NC[C@@H](O)[C@@H]1CCc2cc(F)ccc2O1)OCC(Cl)(Cl)Cl [Compound 9b]	Aspergillus niger	24.7
O=S(=O)(NC[C@@H](O)[C@@H]1CCc2cc(F)ccc2O1)c1ccc(F)cc1F [Compound 8f]	Aspergillus niger	15.7

Could you tell me which MIC is on file for O=[N+]([O-])c1cc(S(=O)(=O)NC[C@@H](O)[C@@H]2CCc3cc(F)ccc3O2)ccc1Cl [Compound 8d] ? 15.3

Name the recorded MIC for CCOC(=O)NC[C@@H](O)[C@@H]1CCc2cc(F)ccc2O1 [Compound 9d] . 28.5

----------
# assayed.target: COX-1 (Ovis aries, UniProt P05979)
# Sequence (P05979 25-600): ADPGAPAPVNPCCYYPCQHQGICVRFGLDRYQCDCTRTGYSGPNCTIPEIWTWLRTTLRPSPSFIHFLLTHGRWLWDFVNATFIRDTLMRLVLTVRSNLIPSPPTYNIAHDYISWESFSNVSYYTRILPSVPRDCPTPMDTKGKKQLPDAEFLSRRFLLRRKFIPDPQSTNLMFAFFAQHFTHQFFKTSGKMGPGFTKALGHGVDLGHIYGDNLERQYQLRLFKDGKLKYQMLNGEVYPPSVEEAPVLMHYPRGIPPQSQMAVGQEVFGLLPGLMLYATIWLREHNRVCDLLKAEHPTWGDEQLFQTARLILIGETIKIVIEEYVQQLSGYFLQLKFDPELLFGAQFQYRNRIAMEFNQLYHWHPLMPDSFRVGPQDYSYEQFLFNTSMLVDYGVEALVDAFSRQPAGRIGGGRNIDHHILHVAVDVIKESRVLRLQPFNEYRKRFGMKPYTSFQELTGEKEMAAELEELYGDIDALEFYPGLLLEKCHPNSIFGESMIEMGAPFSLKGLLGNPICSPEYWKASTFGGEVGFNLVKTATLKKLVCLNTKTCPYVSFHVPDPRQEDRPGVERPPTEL
# assay: Colorimetric COX
# Format: biochemical, ovine
# condition.set: read-out: % inhibition of COX, COX-1
observable: inhibition at 100 µM (%)
Express the result in % but write the number alone.

Known results for molecules:
COC(=O)NC[C@@H](O)[C@@H]1CCc2cc(F)ccc2O1 50.7
O=[N+]([O-])c1cc(S(=O)(=O)NC[C@@H](O)[C@@H]2CCc3cc(F)ccc3O2)ccc1Cl 53.9
O=S(=O)(NC[C@@H](O)[C@@H]1CCc2cc(F)ccc2O1)c1ccc(F)cc1F 33.9
O=S(=O)(NC[C@@H](O)[C@@H]1CCc2cc(F)ccc2O1)c1ccc(Br)cc1 46.1
CCOC(=O)NC[C@@H](O)[C@@H]1CCc2cc(F)ccc2O1 41.4

Endpoint output: inhibition at 100 µM of O=S(=O)(NC[C@@H](O)[C@@H]1CCc2cc(F)ccc2O1)c1cccs1 . Value? 51.1

Give its inhibition at 100 µM value. Item: CC(C)COC(=O)NC[C@@H](O)[C@@H]1CCc2cc(F)ccc2O1 39.6

Any idea what its inhibition at 100 µM is? The molecule is O=S(=O)(NC[C@@H](O)[C@@H]1CCc2cc(F)ccc2O1)c1ccc(F)cc1 37.3

Quick check: inhibition at 100 µM of O=C(NC[C@@H](O)[C@@H]1CCc2cc(F)ccc2O1)OCC(Cl)(Cl)Cl ? 43.1

Recorded inhibition at 100 µM for O=S(=O)(NC[C@@H](O)[C@@H]1CCc2cc(F)ccc2O1)c1cccc(C(F)(F)F)c1 , please? 48.4

----------
# assayed.target: COX-2 (Ovis aries, UniProt P79208)
# Sequence (P79208 17-603): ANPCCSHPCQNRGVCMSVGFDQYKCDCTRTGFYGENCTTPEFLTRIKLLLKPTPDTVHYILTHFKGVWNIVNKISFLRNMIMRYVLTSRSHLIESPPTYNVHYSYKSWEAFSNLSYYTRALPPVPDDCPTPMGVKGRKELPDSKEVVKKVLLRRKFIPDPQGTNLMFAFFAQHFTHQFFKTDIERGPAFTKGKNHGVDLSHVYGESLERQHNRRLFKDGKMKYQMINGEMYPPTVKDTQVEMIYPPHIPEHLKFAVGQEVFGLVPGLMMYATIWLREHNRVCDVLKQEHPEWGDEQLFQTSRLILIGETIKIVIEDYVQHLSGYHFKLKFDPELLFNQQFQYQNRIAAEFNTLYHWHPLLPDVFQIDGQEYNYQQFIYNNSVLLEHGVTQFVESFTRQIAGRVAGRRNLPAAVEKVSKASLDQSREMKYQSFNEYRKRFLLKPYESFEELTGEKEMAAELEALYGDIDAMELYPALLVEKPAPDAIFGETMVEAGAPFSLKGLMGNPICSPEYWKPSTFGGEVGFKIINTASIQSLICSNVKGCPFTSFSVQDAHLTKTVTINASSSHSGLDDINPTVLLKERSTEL
# assay: Colorimetric COX
# Format: biochemical, ovine
# condition.set: read-out: % inhibition of COX, COX-2
Reported inhibition at 200 µM by item:
Please reply with the bare figure in % and do not write the unit itself.

# example entries with known answers
O=S(=O)(NC[C@@H](O)[C@@H]1CCc2cc(F)ccc2O1)c1ccc(F)cc1 38.6
O=S(=O)(NC[C@@H](O)[C@@H]1CCc2cc(F)ccc2O1)c1ccc(F)cc1F 52.1
CCOC(=O)NC[C@@H](O)[C@@H]1CCc2cc(F)ccc2O1 38.6
COC(=O)NC[C@@H](O)[C@@H]1CCc2cc(F)ccc2O1 52.4

# context switch: different compound, same inhibition at 200 µM
Record lookup: for COX-2 (Ovis aries, UniProt P79208), what inhibition at 200 µM belongs to CC(C)COC(=O)NC[C@@H](O)[C@@H]1CCc2cc(F)ccc2O1 ? 41.7

----------
Record: MIC reported on Bacillus subtillis.
Could you give me the number in µg/mL? Just the number is fine.

CCOC(=O)NC[C@@H](O)[C@@H]1CCc2cc(F)ccc2O1 27.7
O=C(NC[C@@H](O)[C@@H]1CCc2cc(F)ccc2O1)OCC(Cl)(Cl)Cl 26

So what MIC did O=[N+]([O-])c1cc(S(=O)(=O)NC[C@@H](O)[C@@H]2CCc3cc(F)ccc3O2)ccc1Cl get with Bacillus subtillis? 18.3

Find MIC (Bacillus subtillis) for the entry O=S(=O)(NC[C@@H](O)[C@@H]1CCc2cc(F)ccc2O1)c1ccc(F)cc1F 16.2

----------
Overview of reported inhibition at 200 µM across a group of compounds:
# assayed.target: COX-1 (Ovis aries, UniProt P05979)
# assay: Colorimetric COX
# Assay type: biochemical, ovine
# condition.set: read-out: % inhibition of COX, COX-1
Supply the numeric figure in %, leaving out any unit text.

Which inhibition at 200 µM is listed for O=S(=O)(NC[C@@H](O)[C@@H]1CCc2cc(F)ccc2O1)c1cccs1 ? 70.1

So what's the measured inhibition at 200 µM for this one? O=[N+]([O-])c1cc(S(=O)(=O)NC[C@@H](O)[C@@H]2CCc3cc(F)ccc3O2)ccc1Cl 69.6

Could you share which inhibition at 200 µM value was measured for O=S(=O)(NC[C@@H](O)[C@@H]1CCc2cc(F)ccc2O1)c1ccc(Br)cc1 ? 68.8

Item O=C(NC[C@@H](O)[C@@H]1CCc2cc(F)ccc2O1)OCC(Cl)(Cl)Cl has what recorded inhibition at 200 µM? 69

Item O=S(=O)(NC[C@@H](O)[C@@H]1CCc2cc(F)ccc2O1)c1cccc(C(F)(F)F)c1 has what recorded inhibition at 200 µM? 71.5
